system: Mus musculus; experiment: Neurotoxicity in CF1 mouse at 300 mg/kg, ip after 4 hrs by rotarod test; type: toxicity, organism-based; set-up: dose 300 mg/kg, route intraperitoneal; details: in vivo
experimental-readout: Activity

CC(CO)(CO)NCC(O)COc1cccc2c(=O)c3ccccc3oc12.Cl (stereo not given)
Non-toxic
CC(C)(CO)NCC(O)COc1cccc2c(=O)c3ccc(Cl)cc3oc12.Cl (stereo not given)
Toxic
C=CCNCC(O)COc1ccc2c(=O)c3ccccc3oc2c1.Cl (stereo not given)
Non-toxic
CC(C)(CO)NCCCOc1cccc2c(=O)c3ccccc3oc12.Cl
Non-toxic

Then this compound:
Query :: Test system Mus musculus; read-out Activity; what value for C=CCNCC(O)COc1cccc2c(=O)c3ccccc3oc12.Cl (stereo not given) ?
Result :: Non-toxic
